- assayed-target: UniProt Q9UBN7
- Sequence (Q9UBN7 whole entry): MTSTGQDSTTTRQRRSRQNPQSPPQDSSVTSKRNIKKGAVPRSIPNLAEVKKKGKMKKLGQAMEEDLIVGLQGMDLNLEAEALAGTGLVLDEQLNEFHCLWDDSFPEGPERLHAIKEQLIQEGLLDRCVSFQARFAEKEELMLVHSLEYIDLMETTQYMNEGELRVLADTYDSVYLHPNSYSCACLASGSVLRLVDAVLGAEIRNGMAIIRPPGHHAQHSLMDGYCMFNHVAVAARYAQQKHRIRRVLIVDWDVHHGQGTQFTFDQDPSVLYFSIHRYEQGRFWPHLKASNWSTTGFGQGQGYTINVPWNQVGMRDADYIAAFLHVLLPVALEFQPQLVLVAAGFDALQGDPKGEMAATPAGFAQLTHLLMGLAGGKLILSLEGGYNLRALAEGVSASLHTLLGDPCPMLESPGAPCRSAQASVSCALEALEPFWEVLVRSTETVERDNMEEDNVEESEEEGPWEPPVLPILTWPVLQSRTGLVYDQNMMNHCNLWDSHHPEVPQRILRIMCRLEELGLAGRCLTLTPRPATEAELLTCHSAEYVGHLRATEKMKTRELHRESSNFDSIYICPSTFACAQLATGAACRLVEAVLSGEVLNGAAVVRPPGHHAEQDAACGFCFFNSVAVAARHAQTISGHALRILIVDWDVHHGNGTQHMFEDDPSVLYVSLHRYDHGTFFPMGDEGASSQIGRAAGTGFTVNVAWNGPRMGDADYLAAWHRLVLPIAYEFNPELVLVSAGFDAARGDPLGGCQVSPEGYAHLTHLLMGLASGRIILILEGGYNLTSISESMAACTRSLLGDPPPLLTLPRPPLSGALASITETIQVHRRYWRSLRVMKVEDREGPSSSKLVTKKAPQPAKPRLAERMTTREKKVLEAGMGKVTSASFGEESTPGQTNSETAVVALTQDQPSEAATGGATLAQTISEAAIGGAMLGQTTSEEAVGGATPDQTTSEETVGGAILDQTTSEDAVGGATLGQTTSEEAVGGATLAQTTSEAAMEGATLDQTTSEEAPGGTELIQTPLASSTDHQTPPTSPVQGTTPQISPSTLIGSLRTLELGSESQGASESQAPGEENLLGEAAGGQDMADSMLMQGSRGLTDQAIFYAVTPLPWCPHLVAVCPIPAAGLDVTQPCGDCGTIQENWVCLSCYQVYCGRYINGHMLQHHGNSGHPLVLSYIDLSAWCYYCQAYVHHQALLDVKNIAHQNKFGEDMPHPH
- assay-protocol: Inhibition of human recombinant HDAC6 using ZMAL (Z-Lys(Ac)-AMC as fluorogenic substrate pre-incubated for 30 mins followed by substrate addition and measured for 1 hr by Fluorescence based analysis
outcome-measure: pIC50
Answers are plain numbers, as −log10 of the molar value.

C[C@@H]1CC[C@H]2[C@@H](C)C(OCC(=O)NO)C[C@@H]3O[C@]4(C)CC[C@@H]1[C@]32OO4 (some centres not stated)    6.73

Please find the next molecule below.
Item C[C@@H]1CC[C@H]2[C@@H](C)C(SCCC(=O)NO)C[C@@H]3O[C@]4(C)CC[C@@H]1[C@]32OO4 (some centres not stated) : provide pIC50
7.35

----------
- assay-protocol: Cytotoxicity against human HDFa cells assessed as inhibition of cell growth incubated for 72 hrs by MTT assay
- Type: toxicity, cell-based
outcome-measure: IC50 at 72 h

Please indicate IC50 at 72 h recorded for `COc1ccc(-c2ocnc2-c2cc(OC)c(OC)c(OC)c2)cc1OCCCC(=O)NO`
> 50 µM
